targetOrTestSystem: human M1 receptor (Homo sapiens, UniProt P11229)
Sequence (P11229 whole entry): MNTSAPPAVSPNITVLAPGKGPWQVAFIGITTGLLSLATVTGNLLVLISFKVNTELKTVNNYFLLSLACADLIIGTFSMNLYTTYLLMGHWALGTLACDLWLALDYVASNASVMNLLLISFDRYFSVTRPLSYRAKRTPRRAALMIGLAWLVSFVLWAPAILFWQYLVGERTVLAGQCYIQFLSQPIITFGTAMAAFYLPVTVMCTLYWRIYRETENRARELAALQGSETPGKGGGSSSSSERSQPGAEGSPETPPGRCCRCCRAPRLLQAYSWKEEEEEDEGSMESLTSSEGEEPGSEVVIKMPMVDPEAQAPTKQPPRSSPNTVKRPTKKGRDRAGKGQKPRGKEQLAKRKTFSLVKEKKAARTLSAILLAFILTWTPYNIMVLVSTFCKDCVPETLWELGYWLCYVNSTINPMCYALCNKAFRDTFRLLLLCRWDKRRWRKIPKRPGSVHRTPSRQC
assayName: In vitro functional assay of muscarinic acetylcholine receptor activity (aequorin calcium flux, antagonist mode vs EC80 acetylcholine), M1
Format: cell-based
assaySetup: CHO-K1 cells stably expressing human M1 receptor with Aequorin; decrease in EC80 acetylcholine response; read-out: M1 IC50
pIC50: −log10 of the molar value.
In this section, each of the molecules is paired with its reported pIC50.

// worked examples, pIC50 included
O=C(CC1CN(c2cccc3ncccc23)C1)N1C[C@H]2CC[C@@H](C1)N2c1ccc(F)cn1; 5.00 to 6.00
Cc1cc(C#N)ncc1N1CCN(C(=O)CCS(=O)(=O)c2cccc3ncsc23)[C@@H](C)C1; > 7.00
N#Cc1ccc(N2C3CCC2CN(C(=O)C2CC(=Cc4cccc5cnccc45)C2)C3)nc1 (stereo not shown); 5.00 to 6.00

What does the record list as pIC50 for `Nc1cc(N2CCN(C(=O)CCS(=O)(=O)c3cccc4ncsc34)CC2)c(Cl)cn1` ?
5.00 to 6.00

###

targetOrTestSystem: M3 (Homo sapiens)
Sequence (P20309 whole entry): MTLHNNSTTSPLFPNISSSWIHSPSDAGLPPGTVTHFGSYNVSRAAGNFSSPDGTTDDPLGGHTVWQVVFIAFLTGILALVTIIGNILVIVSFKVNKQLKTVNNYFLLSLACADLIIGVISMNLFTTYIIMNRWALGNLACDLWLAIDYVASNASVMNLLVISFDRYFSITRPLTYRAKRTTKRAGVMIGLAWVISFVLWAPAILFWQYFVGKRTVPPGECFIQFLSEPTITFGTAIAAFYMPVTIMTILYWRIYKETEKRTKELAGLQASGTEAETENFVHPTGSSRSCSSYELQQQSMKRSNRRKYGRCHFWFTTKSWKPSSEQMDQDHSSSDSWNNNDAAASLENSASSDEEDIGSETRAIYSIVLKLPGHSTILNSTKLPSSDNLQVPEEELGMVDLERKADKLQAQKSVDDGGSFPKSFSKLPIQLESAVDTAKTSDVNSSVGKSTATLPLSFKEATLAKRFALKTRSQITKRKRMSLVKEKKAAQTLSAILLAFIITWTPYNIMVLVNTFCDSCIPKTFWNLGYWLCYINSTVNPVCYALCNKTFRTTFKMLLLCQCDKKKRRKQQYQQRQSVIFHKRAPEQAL
assayName: In vitro functional assay of muscarinic acetylcholine receptor activity, M3
Type: cell-based
assaySetup: antagonist IC50 at M3; read-out: M3 IC50
recordedEndpoint: IC50

Cn1cnc2cccc(S(=O)(=O)CCC(=O)N3CCN(c4ccc(C(F)(F)F)cn4)CC3)c21 [Example 149]; 1 to 10 µM
O=C(CCS(=O)(=O)c1cccc2ncsc12)N1CCC(c2ccc(C(F)(F)F)cn2)CC1 [Example 22]; 1 to 10 µM
C[C@H]1CN(c2cnccc2Cl)CCN1C(=O)CCS(=O)(=O)c1cccc2ncsc12 [Example 101]; > 10 µM
Cc1cc(F)cnc1N1CCN(C(=O)CCCS(=O)(=O)c2cccc3ncsc23)[C@@H](C)C1 [Example 97]; 1 to 10 µM
C[C@H]1CN(c2ccc(C#N)nc2)CCN1C(=O)CCS(=O)(=O)c1cccc2ncsc12 [Example 114]; 1 to 10 µM
O=C(CNCCc1cccc2ncsc12)N1CC2CCC(C1)N2c1ccncc1F [Example 15]; > 10 µM

What does the record list as IC50 for Cc1cc(F)cnc1N1CCN(C(=O)COCc2cccc3ncccc23)[C@@H](C)C1 [Example 87] ?
1 to 10 µM

What does the record list as IC50 for COc1cnc2cccc(COCCC(=O)N3C[C@H]4CC[C@@H](C3)N4c3ccncc3F)c2c1 [Example 76] ?
1 to 10 µM

###

targetOrTestSystem: M3 (Homo sapiens)
assayName: In vitro functional assay of muscarinic acetylcholine receptor activity, M3
Assay type: cell-based
assaySetup: antagonist IC50 at M3; read-out: M3 IC50
pIC50: −log10 of the molar value.
In this section, each of the compounds is paired with its reported pIC50.

// worked examples, pIC50 included
N#Cc1ccc(N2[C@@H]3CC[C@H]2CN(C(=O)COCc2cccc4nccnc24)C3)nc1 [Example 38]; 5.00 to 6.00
Cc1cc(C(F)(F)F)ncc1N1CCN(C(=O)CCS(=O)(=O)c2cccc3ncsc23)[C@@H](C)C1 [Example 153]; 6.00 to 7.00
COc1cnc2cccc(CNCC(=O)N3C[C@H]4CC[C@@H](C3)N4c3ccncc3F)c2c1 [Example 71]; 5.00 to 6.00
COc1cnccc1N1CCN(C(=O)CCCc2cccc3ncccc23)[C@@H](C)C1 [Example 92]; 5.00 to 6.00

Recorded pIC50 for O=C(CCNCc1c(F)ccc2nccn12)N1CC2CCC(C1)N2c1ccc(Cl)cn1 [Example 167] with M3 (Homo sapiens), please?
< 5.00

Recorded pIC50 for O=C(CCS(=O)(=O)c1cccc2nccn12)N1CC2CCC(C1)N2c1ccc(C(F)(F)F)cn1 [Example 136] with M3 (Homo sapiens), please?
5.00 to 6.00

Recorded pIC50 for N#Cc1ccc(N2CC3CCC(C2)N3C(=O)CCS(=O)(=O)c2cccc3ncsc23)nc1 [Example 132] with M3 (Homo sapiens), please?
5.00 to 6.00

Recorded pIC50 for COc1cc(N2CCN(C(=O)CCCc3cccc4ncccc34)CC2)ccn1 [Example 69] with M3 (Homo sapiens), please?
5.00 to 6.00

Recorded pIC50 for O=C(CCS(=O)(=O)c1cccc2nccn12)N1CCN(c2ccc(C(F)(F)F)cn2)CC1 [Example 106] with M3 (Homo sapiens), please?
< 5.00

Recorded pIC50 for O=C(CCNCc1cccc2ncnn12)N1CC2CCC(C1)N2c1ccc(Br)cn1 [Example 156] with M3 (Homo sapiens), please?
5.00 to 6.00

Recorded pIC50 for N#Cc1ccc(N2C3CCC2CN(C(=O)CCNCc2cccn4nccc24)C3)nc1 [Example 165] with M3 (Homo sapiens), please?
5.00 to 6.00
